Where do the numbers come from? From patent US9464084B2.

Molecular target: rat P2X7 (Rattus norvegicus (Rat))
Sequence (Q64663 whole entry): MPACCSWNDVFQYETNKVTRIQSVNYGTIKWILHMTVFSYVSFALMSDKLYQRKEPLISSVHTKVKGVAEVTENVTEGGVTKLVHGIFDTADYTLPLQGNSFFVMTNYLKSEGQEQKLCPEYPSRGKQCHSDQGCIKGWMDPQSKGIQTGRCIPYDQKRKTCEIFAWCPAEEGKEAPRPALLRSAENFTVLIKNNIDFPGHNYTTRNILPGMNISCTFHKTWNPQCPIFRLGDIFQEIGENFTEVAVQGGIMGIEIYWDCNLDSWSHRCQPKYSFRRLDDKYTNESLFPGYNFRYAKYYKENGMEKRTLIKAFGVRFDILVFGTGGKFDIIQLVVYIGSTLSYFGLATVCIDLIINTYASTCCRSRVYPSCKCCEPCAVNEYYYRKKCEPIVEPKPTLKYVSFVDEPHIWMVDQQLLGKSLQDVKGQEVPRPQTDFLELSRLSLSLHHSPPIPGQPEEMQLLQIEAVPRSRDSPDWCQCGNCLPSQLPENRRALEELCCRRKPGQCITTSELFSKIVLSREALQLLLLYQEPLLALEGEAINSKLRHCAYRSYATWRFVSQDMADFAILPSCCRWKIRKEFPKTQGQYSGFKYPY
Assay: Ca2+ flux (FLIPR) in 1321N1 cells expressing recombinant rat P2X7 channel;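 further: Calcium-4 dye fluorescence change read 180 s after agonist addition, following 30 min cell preincubation with test compound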
Conditions: 250 μM BzATP
pIC50: −log10 of the molar value.
Quick rule for you: pIC50 at 6 or higher means Yes, lower means No.

COMPOUND: CC1c2ncn(-c3cnccn3)c2C=CN1C(=O)c1cccc(C(F)(F)F)c1Cl (centres unmarked)
ASSIGNED CLASS: Yes
--
COMPOUND: O=C(c1cccc(C(F)(F)F)c1Cl)N1CCc2c(-c3cncc(F)c3)n[nH]c2C1
ASSIGNED CLASS: No
--
COMPOUND: O=C(c1cccc(Cl)c1Cl)N1CCc2c(nnn2-c2ccccc2)C1
ASSIGNED CLASS: No
--
COMPOUND: CC1CN(C(=O)c2cccc(C(F)(F)F)c2Cl)Cc2nnn(-c3ccc(F)cc3)c21 (centres unmarked)
ASSIGNED CLASS: No
--
COMPOUND: Cn1ccc(-n2nnc3c2CCN(C(=O)c2cccc(C(F)(F)F)c2Cl)C3)n1
ASSIGNED CLASS: Yes
--
COMPOUND: CC1Cc2c(nnn2-c2ccccn2)CN1C(=O)c1ccc(F)c(Cl)c1Cl (centres unmarked)
ASSIGNED CLASS: Yes
--
COMPOUND: CC1Cc2c(-c3ccnn3C)nn(C)c2CN1C(=O)c1cccc(C(F)(F)F)c1Cl (centres unmarked)
ASSIGNED CLASS: Yes
